Several publications report Ki on Tyrosine-protein kinase JAK2 (Homo sapiens); those values are gathered here.

COMPOUND | TARGET | Ki
Fc1ccc(F)c(C2Nc3ccccc3-c3ccnc4[nH]cc2c34)c1 (stereo not shown) | Tyrosine-protein kinase JAK2 (Homo sapiens) | < 250 nM

Lab note: need Ki for N#Cc1cccc(F)c1-c1cc(-n2ccc(N3CCOCC(O)C3)n2)c2c(n1)CNC2=O (stereo not shown) on Tyrosine-protein kinase JAK2 (Homo sapiens), anyone have it?
10 to 100 nM

Here is the next compound: `CN1C(=O)[C@@](C)(c2ccc(Nc3nc(-c4c(F)cccc4F)nc4c3C(=O)NC4)cc2)Oc2ccccc21`
100 to 1000 nM

Proceed to `N#Cc1cccc(F)c1-c1cc(-n2ccc(N3C[C@H](O)C[C@H]3CO)n2)c2c(n1)CNC2=O`
10 to 100 nM
